# experimental-conditions: in ethanol, 278.15 K
assay-metric: solubility (mole fraction)
Reply briefly: the number, and no unit.

Recorded solubility (mole fraction) of CCS(=O)(=O)O.COC(=O)c1ccc2c(C(=Nc3ccc(N(C)C(=O)CN4CCN(C)CC4)cc3)c3ccccc3)c(O)[nH]c2c1 , please. 0.00015

* * *

# experimental-conditions: in acetonitrile, 318.15 K
assay-metric: solubility (mole fraction)
Reply briefly: the number, and no unit.

Recorded solubility (mole fraction) of CCS(=O)(=O)O.COC(=O)c1ccc2c(C(=Nc3ccc(N(C)C(=O)CN4CCN(C)CC4)cc3)c3ccccc3)c(O)[nH]c2c1 , please. 6.02e-05

* * *

# experimental-conditions: in DMF, 318.15 K
assay-metric: solubility (mole fraction)
Reply briefly: the number, and no unit.

Recorded solubility (mole fraction) of CCS(=O)(=O)O.COC(=O)c1ccc2c(C(=Nc3ccc(N(C)C(=O)CN4CCN(C)CC4)cc3)c3ccccc3)c(O)[nH]c2c1 , please. 0.00304

* * *

# experimental-conditions: in acetone, 288.15 K
assay-metric: solubility (mole fraction)

Recorded solubility (mole fraction) of CCS(=O)(=O)O.COC(=O)c1ccc2c(C(=Nc3ccc(N(C)C(=O)CN4CCN(C)CC4)cc3)c3ccccc3)c(O)[nH]c2c1 , please. 4.97e-06

* * *

# experimental-conditions: in DMAc, 313.15 K
assay-metric: solubility (mole fraction)
Reply briefly: the number, and no unit.

Recorded solubility (mole fraction) of CCS(=O)(=O)O.COC(=O)c1ccc2c(C(=Nc3ccc(N(C)C(=O)CN4CCN(C)CC4)cc3)c3ccccc3)c(O)[nH]c2c1 , please. 0.00258

* * *

# experimental-conditions: in n-propanol, 318.15 K
assay-metric: solubility (mole fraction)
Reply briefly: the number, and no unit.

Recorded solubility (mole fraction) of CCS(=O)(=O)O.COC(=O)c1ccc2c(C(=Nc3ccc(N(C)C(=O)CN4CCN(C)CC4)cc3)c3ccccc3)c(O)[nH]c2c1 , please. 0.000317

* * *

# experimental-conditions: in dichloromethane, 298.15 K
assay-metric: solubility (mole fraction)
Reply briefly: the number, and no unit.

Recorded solubility (mole fraction) of CCS(=O)(=O)O.COC(=O)c1ccc2c(C(=Nc3ccc(N(C)C(=O)CN4CCN(C)CC4)cc3)c3ccccc3)c(O)[nH]c2c1 , please. 0.000199

* * *

# experimental-conditions: in DMAc, 318.15 K
assay-metric: solubility (mole fraction)
Reply briefly: the number, and no unit.

Recorded solubility (mole fraction) of CCS(=O)(=O)O.COC(=O)c1ccc2c(C(=Nc3ccc(N(C)C(=O)CN4CCN(C)CC4)cc3)c3ccccc3)c(O)[nH]c2c1 , please. 0.00285

* * *

# experimental-conditions: in n-propanol, 308.15 K
assay-metric: solubility (mole fraction)

Recorded solubility (mole fraction) of CCS(=O)(=O)O.COC(=O)c1ccc2c(C(=Nc3ccc(N(C)C(=O)CN4CCN(C)CC4)cc3)c3ccccc3)c(O)[nH]c2c1 , please. 0.000207

* * *

# experimental-conditions: in dichloromethane, 283.15 K
assay-metric: solubility (mole fraction)
Reply briefly: the number, and no unit.

Recorded solubility (mole fraction) of CCS(=O)(=O)O.COC(=O)c1ccc2c(C(=Nc3ccc(N(C)C(=O)CN4CCN(C)CC4)cc3)c3ccccc3)c(O)[nH]c2c1 , please. 0.000148

* * *

# experimental-conditions: in dichloromethane, 293.15 K
assay-metric: solubility (mole fraction)
Reply briefly: the number, and no unit.

Recorded solubility (mole fraction) of CCS(=O)(=O)O.COC(=O)c1ccc2c(C(=Nc3ccc(N(C)C(=O)CN4CCN(C)CC4)cc3)c3ccccc3)c(O)[nH]c2c1 , please. 0.000175
